Test system: 6-Hz psychomotor seizures
ASSAY_NAME: Psychomotor seizure test (6-Hz), i.p. in mice
Format: in vivo
EXPERIMENTAL_CONTEXT: 100 mg/kg, current 32 mA, 1 h
OBSERVABLE: 6-Hz, number of mice protected/number of mice tested, 1 h

Some compounds with recorded 6-Hz, number of mice protected/number of mice tested, 1 h:
> print(dat)
                            chemical.smiles  result
1      Cl.O=C(CN1CCOCC1)Nc1cccc(C(F)(F)F)c1     3/4
2  Cl.O=C(CN1CCN(c2ccc(F)cc2)CC1)Nc1cccc(C(F)(F)F)c1     0/4
3  Cl.O=C(CN1CCN(c2cccc(C(F)(F)F)c2)CC1)Nc1cccc(C(F)(F)F)c1     0/4

Consider the additional compound presented here.
Answer with the recorded 6-Hz, number of mice protected/number of mice tested, 1 h of `CN1CCN(CC(=O)Nc2cccc(Cl)c2)CC1.Cl.Cl` only. 0/4

----------
Test system: 6-Hz psychomotor seizures
ASSAY_NAME: Psychomotor seizure test (6-Hz), i.p. in mice
Format: in vivo
EXPERIMENTAL_CONTEXT: 100 mg/kg, current 32 mA, 4 h
OBSERVABLE: 6-Hz, number of mice protected/number of mice tested, 4 h

Some compounds with recorded 6-Hz, number of mice protected/number of mice tested, 4 h:
> print(dat)
                            chemical.smiles  result
1  Cl.O=C(CN1CCN(c2ccc(F)cc2)CC1)Nc1cccc(C(F)(F)F)c1     1/4
2      CN1CCN(CC(=O)Nc2cccc(Cl)c2)CC1.Cl.Cl     0/4
3      Cl.O=C(CN1CCOCC1)Nc1cccc(C(F)(F)F)c1     0/4

Consider the additional compound presented here.
State, for 6-Hz psychomotor seizures, measured 6-Hz, number of mice protected/number of mice tested, 4 h of the compound listed here: `Cl.O=C(CN1CCN(c2cccc(C(F)(F)F)c2)CC1)Nc1cccc(C(F)(F)F)c1` 1/4
